Tested Target: PIK3CA (human), P42336 [Antiproliferation of PI3K Mutated BT20 Cells]
Sequence (P42336 whole entry, looked up, change not shown): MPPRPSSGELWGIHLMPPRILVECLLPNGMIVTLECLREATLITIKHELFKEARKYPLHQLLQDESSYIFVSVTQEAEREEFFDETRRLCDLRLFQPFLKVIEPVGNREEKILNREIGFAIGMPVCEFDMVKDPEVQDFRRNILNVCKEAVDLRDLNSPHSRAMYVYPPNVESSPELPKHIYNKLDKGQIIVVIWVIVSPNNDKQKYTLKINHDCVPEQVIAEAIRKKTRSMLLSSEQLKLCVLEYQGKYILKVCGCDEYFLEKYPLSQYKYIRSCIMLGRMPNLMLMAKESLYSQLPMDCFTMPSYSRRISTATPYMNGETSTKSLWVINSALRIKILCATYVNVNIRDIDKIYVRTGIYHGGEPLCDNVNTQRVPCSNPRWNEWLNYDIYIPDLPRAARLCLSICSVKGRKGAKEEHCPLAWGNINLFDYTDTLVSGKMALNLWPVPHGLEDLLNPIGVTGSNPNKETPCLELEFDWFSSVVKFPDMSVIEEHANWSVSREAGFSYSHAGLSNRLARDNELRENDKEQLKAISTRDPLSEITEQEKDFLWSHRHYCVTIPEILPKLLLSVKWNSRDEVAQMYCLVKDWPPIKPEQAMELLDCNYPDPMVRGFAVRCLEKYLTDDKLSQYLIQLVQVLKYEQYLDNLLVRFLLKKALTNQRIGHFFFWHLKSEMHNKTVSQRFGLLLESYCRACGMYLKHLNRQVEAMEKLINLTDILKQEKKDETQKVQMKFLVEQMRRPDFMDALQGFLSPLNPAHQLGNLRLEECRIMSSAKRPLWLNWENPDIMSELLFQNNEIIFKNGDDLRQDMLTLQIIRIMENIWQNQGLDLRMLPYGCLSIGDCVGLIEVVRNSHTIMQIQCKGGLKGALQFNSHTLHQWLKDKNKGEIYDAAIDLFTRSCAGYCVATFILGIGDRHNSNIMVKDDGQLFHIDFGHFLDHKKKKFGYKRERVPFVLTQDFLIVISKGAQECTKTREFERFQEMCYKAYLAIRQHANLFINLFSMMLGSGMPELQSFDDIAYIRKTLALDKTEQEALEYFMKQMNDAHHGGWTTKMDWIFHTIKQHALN
Assay Explanation: Cell-Based Assay
pIC50: −log10 of the molar value.
Is pIC50 at least 7? Then 1.0. If not, 0.0.

- Smiles Entry: "Cc1nc(N)nc2c1cc(-c1cnc3[nH]ccc3c1)c(=O)n2C1CCC1"
  Class Name: 1.0
- Smiles Entry: "COc1ncc(-c2cc3c(C)nc(N)nc3n(C(C)C)c2=O)cn1"
  Class Name: 1.0
- Smiles Entry: "CNc1nc(C)c2cc(-c3cnn(C)c3)c(=O)n(C3CCCC3)c2n1"
  Class Name: 0.0
- Smiles Entry: "Cc1nc(N)nc2c1cc(-c1cnn(CCO)c1)c(=O)n2C1CCCC1"
  Class Name: 0.0
- Smiles Entry: "COc1ccc(-c2cc3c(C)nc(N)nc3n(C3CCC(=O)CC3)c2=O)cn1"
  Class Name: 1.0
- Smiles Entry: "Cc1nc(N)nc2c1cc(-c1cccc(CO)c1)c(=O)n2C1CCOCC1"
  Class Name: 1.0
- Smiles Entry: "CNc1nc(C)c2cc(/C=C/O)c(=O)n(C3CCCC3)c2n1"
  Class Name: 0.0
- Smiles Entry: "CCNc1nc(C)c2cc(-c3cnc(OC)nc3)c(=O)n([C@H]3CC[C@H](O)CC3)c2n1"
  Class Name: 1.0
- Smiles Entry: "COc1ccc(-c2cc3c(C)nc(NCC(F)F)nc3n([C@H]3CC[C@H](O)CC3)c2=O)cn1"
  Class Name: 1.0
- Smiles Entry: "Cc1nc(N)nc2c1cc(-c1ccc(C#N)nc1)c(=O)n2[C@H]1CC[C@H](O)CC1"
  Class Name: 0.0
- Smiles Entry: "CNc1nc(C)c2cc(C#N)c(=O)n(C3CCCC3)c2n1"
  Class Name: 0.0
- Smiles Entry: "Cc1nc(NCC(C)(C)O)nc2c1cc(-c1cccc(O)c1)c(=O)n2C1CCCC1"
  Class Name: 0.0

* * *

Tested Target: PIK3CA (human) (UniProt P42336)
Sequence (P42336 whole entry, looked up): as the sequence (P42336 whole entry, looked up, change not shown) above
pIC50: −log10 of the molar value.
Use 8 as the dividing line for pIC50, with the line itself on the y side and lower values as n.

- Compound: "CCn1cc(CNC(=O)c2cc3c(C)nc(NC)nc3n(C3CCCC3)c2=O)cn1"
  Class Name: "n"
- Compound: "CNc1nc(C)c2cc(-c3cccnc3OC)c(=O)n(C3CCCC3)c2n1"
  Class Name: "n"
- Compound: "COc1ccc(Cn2c(=O)c(-c3ccccc3)cc3c(C)nc(N)nc32)cc1"
  Class Name: "n"
- Compound: "CNc1nc(C)c2cc(-c3cnn(CCO)c3)c(=O)n(C3CCCC3)c2n1"
  Class Name: "n"
- Compound: "COc1ccc(-c2cc3c(C)nc(N)nc3n(CC(F)(F)F)c2=O)cn1"
  Class Name: "n"
- Compound: "Cc1nc(N)nc2c1cc(-c1cn[nH]c1)c(=O)n2C1CCC(C)(O)CC1 (centres undefined)"
  Class Name: "n"
- Compound: "Cc1nc(N)nc2c1cc(-c1cn[nH]c1)c(=O)n2N1CCCC1"
  Class Name: "n"
- Compound: "CNc1nc(C)c2cc(-c3cccc(CO)c3)c(=O)n(C3CCCC3)c2n1"
  Class Name: "y"
- Compound: "Cc1nc(N)nc2c1cc(-c1ccc3cc[nH]c3n1)c(=O)n2[C@H]1CC[C@@H](O)CC1"
  Class Name: "y"
- Compound: "Cc1nc(N)nc2c1cc(-c1cccc(Cl)n1)c(=O)n2C1CCCC1"
  Class Name: "n"
- Compound: "Cc1nc(N)nc2c1cc(-c1ccccc1)c(=O)n2Cc1ccc(Cl)cc1"
  Class Name: "n"
- Compound: "COc1ccc(-c2cc3c(C)nc(N)nc3n(CC(C)(C)F)c2=O)cn1"
  Class Name: "n"
- Compound: "COc1ccc(-c2cc3c(C)nc(N)nc3n(C3CCN(C(=O)OC(C)(C)C)C3)c2=O)cn1 (centres undefined)"
  Class Name: "n"
- Compound: "COc1ccc(-c2cc3c(C)nc(NCC(C)(C)O)nc3n(C3CCCC3)c2=O)cn1"
  Class Name: "n"
- Compound: "CCNc1nc(C)c2cc(-c3ccc(O)c(OC)c3)c(=O)n(C3CCCC3)c2n1"
  Class Name: "y"
- Compound: "CCNc1nc(C)c2cc(CCC(=O)O)c(=O)n(C3CCCC3)c2n1"
  Class Name: "n"
- Compound: "CNc1nc(C)c2cc(-c3ccc(O)c(OC)c3)c(=O)n(C3CCCC3)c2n1"
  Class Name: "y"
- Compound: "COc1ncc(-c2cc3c(C)nc(N)nc3n([C@H]3C[C@H](OCCO)C3)c2=O)cc1F"
  Class Name: "y"
- Compound: "CNc1nc(C)c2cc(Br)c(=O)n(CC3CCOC3)c2n1 (centres undefined)"
  Class Name: "n"
- Compound: "Cc1nc(N)nc2c1cc(-c1cccc(CO)c1)c(=O)n2C1CCOCC1"
  Class Name: "y"
- Compound: "CNc1nc(C)c2cc(-c3cccc(OC)c3)c(=O)n(C3CCCC3)c2n1"
  Class Name: "n"
- Compound: "CNc1nc(C)c2cc(/C=C/O)c(=O)n(C3CCCC3)c2n1"
  Class Name: "n"
- Compound: "CNc1nc(C)c2cc(-c3cnc4[nH]ccc4c3)c(=O)n(CC3CCOC3)c2n1 (centres undefined)"
  Class Name: "y"
- Compound: "CNc1nc(C)c2cc(-c3ccc(Cl)nc3)c(=O)n(C3CCCC3)c2n1"
  Class Name: "n"
- Compound: "COc1cc(-c2cc3c(C)nc(N)nc3n(C3CCCC3)c2=O)ccc1O"
  Class Name: "y"

* * *

# reported IC50; entries follow
Tested Target: PIK3CA (human), P42336 [Antiproliferation of PI3K Mutated BT20 Cells]
Assay Explanation: Cell-Based Assay
Measurement Label: IC50

- Smiles Entry: "Cc1nc(N)nc2c1cc(-c1cn[nH]c1)c(=O)n2C1CCOCC1"
  Measurement Label: "IC50"
  Experimental Value: "19.9 nM"
- Smiles Entry: "CNc1nc(C)c2cc(-c3cncnc3)c(=O)n(C3CCCC3)c2n1"
  Measurement Label: "IC50"
  Experimental Value: "305 nM"
- Smiles Entry: "COc1cccc(-c2cc3c(C)nc(N)nc3n(C3CCCC3)c2=O)c1"
  Measurement Label: "IC50"
  Experimental Value: "622 nM"
- Smiles Entry: "COc1ncc(-c2cc3c(C)nc(N)nc3n([C@H]3C[C@H](OCCO)C3)c2=O)cc1F"
  Measurement Label: "IC50"
  Experimental Value: "14.6 nM"
- Smiles Entry: "CO[C@H]1CC[C@H](n2c(=O)c(-c3cc[nH]n3)cc3c(C)nc(N)nc32)CC1"
  Measurement Label: "IC50"
  Experimental Value: "17.2 nM"
- Smiles Entry: "Cc1nc(N)nc2c1cc(-c1cnn(C)c1)c(=O)n2[C@H]1CC[C@H](O)CC1"
  Measurement Label: "IC50"
  Experimental Value: "475 nM"

* * *

Tested Target: PIK3CA (human), P42336 [Antiproliferation of PI3K Mutated BT20 Cells]
Assay Explanation: Cell-Based Assay
pIC50: −log10 of the molar value.
Recorded pIC50 for the following compounds
Measurement Label: pIC50

- Smiles Entry: "COc1ccc(-c2cc3c(C)nc(N)nc3n([C@H]3CC[C@H](OCC(N)=O)CC3)c2=O)cn1"
  Tested Target: "PIK3CA (human), P42336 [Antiproliferation of PI3K Mutated BT20 Cells]"
  Measurement Label: "pIC50"
  Experimental Value: 7.71
- Smiles Entry: "Cc1nc(N)nc2c1cc(C(=O)Nc1ccn[nH]1)c(=O)n2C(C)C"
  Tested Target: "PIK3CA (human), P42336 [Antiproliferation of PI3K Mutated BT20 Cells]"
  Measurement Label: "pIC50"
  Experimental Value: 7.52
- Smiles Entry: "Cc1nc(N)nc2c1cc(-c1ccc(F)cc1)c(=O)n2CC(C)(C)O"
  Tested Target: "PIK3CA (human), P42336 [Antiproliferation of PI3K Mutated BT20 Cells]"
  Measurement Label: "pIC50"
  Experimental Value: 5.00
- Smiles Entry: "Cc1nc(N)nc2c1cc(-c1cncc(N)n1)c(=O)n2C1CCCC1"
  Tested Target: "PIK3CA (human), P42336 [Antiproliferation of PI3K Mutated BT20 Cells]"
  Measurement Label: "pIC50"
  Experimental Value: 7.47
- Smiles Entry: "CCNc1nc(C)c2cc(-c3cnc4[nH]ccc4c3)c(=O)n(C3CCCC3)c2n1"
  Tested Target: "PIK3CA (human), P42336 [Antiproliferation of PI3K Mutated BT20 Cells]"
  Measurement Label: "pIC50"
  Experimental Value: 7.34
- Smiles Entry: "COc1ncc(-c2cc3c(C)nc(N)nc3n(C3CCOCC3)c2=O)cn1"
  Tested Target: "PIK3CA (human), P42336 [Antiproliferation of PI3K Mutated BT20 Cells]"
  Measurement Label: "pIC50"
  Experimental Value: 7.57
